# Measured On: UniProt Q13547
# Sequence (Q13547 whole entry): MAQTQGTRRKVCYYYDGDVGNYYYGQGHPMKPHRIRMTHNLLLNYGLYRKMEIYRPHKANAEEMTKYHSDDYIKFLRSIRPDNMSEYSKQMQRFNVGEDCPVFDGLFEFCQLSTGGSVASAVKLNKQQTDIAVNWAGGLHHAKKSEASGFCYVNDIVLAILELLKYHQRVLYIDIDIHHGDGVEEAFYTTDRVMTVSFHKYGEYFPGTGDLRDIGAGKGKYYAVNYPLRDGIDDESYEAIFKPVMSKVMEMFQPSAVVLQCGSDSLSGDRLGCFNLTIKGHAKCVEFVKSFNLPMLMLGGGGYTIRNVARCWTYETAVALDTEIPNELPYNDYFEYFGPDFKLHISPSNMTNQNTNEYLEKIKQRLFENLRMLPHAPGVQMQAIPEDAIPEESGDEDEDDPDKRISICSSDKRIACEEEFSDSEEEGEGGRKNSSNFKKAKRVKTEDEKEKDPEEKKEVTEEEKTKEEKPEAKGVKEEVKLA
# Method Summary: Inhibition of recombinant HDAC1 (unknown origin) expressed in Escherichia coli BL21(DE3) after 60 mins using trichostatin A by label-free mass spectrometry-based SAMDI assay
Readout Type: pIC50
// field semantics: pIC50 = negative decimal log of concentration (mol/L)

[ask] Sample CC[C@@H]1OC(=O)[C@@H](C)[C@H](O[C@H]2C[C@@](C)(OC)[C@@H](O)[C@H](C)O2)[C@H](C)[C@H](O[C@@H]2O[C@H](C)C[C@H](N(C)Cc3ccc(-c4cn(CCCCCCC(=O)NO)nn4)cc3)[C@H]2O)[C@@](C)(OC)C[C@H](C)C(=O)[C@@H](C)[C@@H](O)[C@@]1(C)O (stereo in doubt) — what was its pIC50?
[reply] 6.68
